# Experimental protocol: Octreotide degradation on buccal tissue with microneedle application
# Assay type: in vitro ADME
# Measurement setup: buccal tissue incubated with octreotide solution; + Tissue; 4 hours at 37 degrees C.
# Method: As shown in the Table below, the buccal tissue was subjected to microneedle application (10 times) and incubated with octreotide solution (2 ml, 1 mg/ml) for 4 hours at 37 degrees C.
Property name: remaining at 4 h, 1 mg/ml

GET /values?readout=remaining at 4 h, 1 mg/ml&item= C[C@@H](O)[C@@H]1NC(=O)[C@H](CCCCN)NC(=O)[C@@H](Cc2c[nH]c3ccccc23)NC(=O)[C@H](Cc2ccccc2)NC(=O)[C@@H](NC(=O)[C@H](N)Cc2ccccc2)CSSC[C@@H](C(=O)N[C@H](CO)[C@@H](C)O)NC1=O [Octreotide]
86%

----------
# Experimental protocol: POC study in mini pigs, octreotide solution on buccal/sublingual mucosa after microneedles
# Format: in vivo
# Measurement setup: pig, blood, 12 mg, 12 mg with 5 wt % DDTMAB applied to disrupted sublingual mucosa
Property name: bioavailability (%)
Reply with just the number (in %).

GET /values?readout=bioavailability&item= C[C@@H](O)[C@@H]1NC(=O)[C@H](CCCCN)NC(=O)[C@@H](Cc2c[nH]c3ccccc23)NC(=O)[C@H](Cc2ccccc2)NC(=O)[C@@H](NC(=O)[C@H](N)Cc2ccccc2)CSSC[C@@H](C(=O)N[C@H](CO)[C@@H](C)O)NC1=O [octreotide acetate]
5.97

----------
# Experimental protocol: POC study in mini pigs, octreotide solution on buccal/sublingual mucosa after microneedles
# Assay type: in vivo
# Measurement setup: pig, blood, iv, 100 ug, 100 μg I.V.
Property name: Tmax (min)
Reply with just the number (in min).

GET /values?readout=Tmax&item= C[C@@H](O)[C@@H]1NC(=O)[C@H](CCCCN)NC(=O)[C@@H](Cc2c[nH]c3ccccc23)NC(=O)[C@H](Cc2ccccc2)NC(=O)[C@@H](NC(=O)[C@H](N)Cc2ccccc2)CSSC[C@@H](C(=O)N[C@H](CO)[C@@H](C)O)NC1=O [octreotide acetate]
4

----------
# Experimental protocol: POC study in mini pigs, octreotide solution on buccal/sublingual mucosa after microneedles
# Type: in vivo
# Measurement setup: pig, blood, 12 mg, 12 mg solution with 5 wt % DDTMAB applied to disrupted buccal mucosa
Property name: AUC (ng·h/mL)
Reply with just the number (in ng·h/mL).

GET /values?readout=AUC&item= C[C@@H](O)[C@@H]1NC(=O)[C@H](CCCCN)NC(=O)[C@@H](Cc2c[nH]c3ccccc23)NC(=O)[C@H](Cc2ccccc2)NC(=O)[C@@H](NC(=O)[C@H](N)Cc2ccccc2)CSSC[C@@H](C(=O)N[C@H](CO)[C@@H](C)O)NC1=O [octreotide acetate]
19.8

----------
# Experimental protocol: POC study in mini pigs, octreotide solution on buccal/sublingual mucosa after microneedles
# Type: in vivo
# Measurement setup: pig, blood, 12 mg solution with 5 wt % DDTMAB applied to disrupted buccal mucosa
Property name: Tmax (h)
Reply with just the number (in h).

GET /values?readout=Tmax&item= C[C@@H](O)[C@@H]1NC(=O)[C@H](CCCCN)NC(=O)[C@@H](Cc2c[nH]c3ccccc23)NC(=O)[C@H](Cc2ccccc2)NC(=O)[C@@H](NC(=O)[C@H](N)Cc2ccccc2)CSSC[C@@H](C(=O)N[C@H](CO)[C@@H](C)O)NC1=O [octreotide acetate]
3

----------
# Experimental protocol: POC study in mini pigs, octreotide solution on buccal/sublingual mucosa after microneedles
# Format: in vivo
# Measurement setup: pig, blood, iv, 100 ug, 100 μg I.V.
Property name: Cmax (ng/mL)
Reply with just the number (in ng/mL).

GET /values?readout=Cmax&item= C[C@@H](O)[C@@H]1NC(=O)[C@H](CCCCN)NC(=O)[C@@H](Cc2c[nH]c3ccccc23)NC(=O)[C@H](Cc2ccccc2)NC(=O)[C@@H](NC(=O)[C@H](N)Cc2ccccc2)CSSC[C@@H](C(=O)N[C@H](CO)[C@@H](C)O)NC1=O [octreotide acetate]
31

----------
# Experimental protocol: POC study in mini pigs, octreotide solution on buccal/sublingual mucosa after microneedles
# Type: in vivo
# Measurement setup: pig, blood, iv, 100 ug, 100 μg I.V.
Property name: AUC
# output: numeric value plus its unit

GET /values?readout=AUC&item= C[C@@H](O)[C@@H]1NC(=O)[C@H](CCCCN)NC(=O)[C@@H](Cc2c[nH]c3ccccc23)NC(=O)[C@H](Cc2ccccc2)NC(=O)[C@@H](NC(=O)[C@H](N)Cc2ccccc2)CSSC[C@@H](C(=O)N[C@H](CO)[C@@H](C)O)NC1=O [octreotide acetate]
14.8 ng·h/mL

----------
# Experimental protocol: POC study in mini pigs, octreotide solution on buccal/sublingual mucosa after microneedles
# Type: in vivo
# Measurement setup: pig, blood, 12 mg, 12 mg solution with 5 wt % DDTMAB applied to disrupted buccal mucosa
Property name: bioavailability (%)
Reply with just the number (in %).

GET /values?readout=bioavailability&item= C[C@@H](O)[C@@H]1NC(=O)[C@H](CCCCN)NC(=O)[C@@H](Cc2c[nH]c3ccccc23)NC(=O)[C@H](Cc2ccccc2)NC(=O)[C@@H](NC(=O)[C@H](N)Cc2ccccc2)CSSC[C@@H](C(=O)N[C@H](CO)[C@@H](C)O)NC1=O [octreotide acetate]
1.11
